Cited source for all entries: patent US20040152769A1

Assay: Rat plasma stability of selected prodrugs (37° C., RP-HPLC)
Type: in vitro ADME
Details: rat plasma, 37° C., 120 minutes, peak area
Measured % comp. 120′ accompanies every entry in the list below.

| compound | % comp. 120′ |
| --- | --- |
| COCCOCCOCCOCCOC(=O)N(C(=O)NCCCN1CCC(c2cccc(OC)c2)CC1)c1cccc(C2C(C(=O)OC)=C(C)NC(C)=C2C(=O)OC)c1.Cl [Compound 17] | 98.5% |
| COC(=O)C1=C(C)NC(C)=C(C(=O)OC)C1c1cccc(N(C(=O)NCCCN2CCC(c3cccc(OC)c3)CC2)C(=O)OC(CO)CO)c1.Cl [Compound 16] | 0% |
| COCCOCCOCCOC(=O)N(C(=O)NCCCN1CCC(c2cccc(OC)c2)CC1)c1cccc(C2C(C(=O)OC)=C(C)NC(C)=C2C(=O)OC)c1.Cl [Compound 13] | 98.0% |
| COCCOCCOCCOCCOCCOCCOCCOCCOC(=O)N(C(=O)NCCCN1CCC(c2cccc(OC)c2)CC1)c1cccc(C2C(C(=O)OC)=C(C)NC(C)=C2C(=O)OC)c1.Cl [Compound 19] | 96.5% |
| CCOC(=O)N(C(=O)NCCCN1CCC(c2cccc(OC)c2)CC1)c1cccc(C2C(C(=O)OC)=C(C)NC(C)=C2C(=O)OC)c1.Cl [Compound 14] | 97.5% |

* * *

Experiment: Rat plasma stability of selected prodrugs (37° C., RP-HPLC)
Format: in vitro ADME
Details: rat plasma, 37° C., 0 minutes, peak area
measure: % comp. 0′ (%)

| structure-string | measure | readout-value |
| --- | --- | --- |
| CCOC(=O)N(C(=O)NCCCN1CCC(c2cccc(OC)c2)CC1)c1cccc(C2C(C(=O)OC)=C(C)NC(C)=C2C(=O)OC)c1.Cl | % comp. 0′ | 98.0 |
| COCCOCCOCCOCCOCCOCCOCCOCCOC(=O)N(C(=O)NCCCN1CCC(c2cccc(OC)c2)CC1)c1cccc(C2C(C(=O)OC)=C(C)NC(C)=C2C(=O)OC)c1.Cl | % comp. 0′ | 97.0 |
| COCCOCCOCCOCCOC(=O)N(C(=O)NCCCN1CCC(c2cccc(OC)c2)CC1)c1cccc(C2C(C(=O)OC)=C(C)NC(C)=C2C(=O)OC)c1.Cl | % comp. 0′ | 99.7 |
| COCCOCCOCCOC(=O)N(C(=O)NCCCN1CCC(c2cccc(OC)c2)CC1)c1cccc(C2C(C(=O)OC)=C(C)NC(C)=C2C(=O)OC)c1.Cl | % comp. 0′ | 99.0 |
| COC(=O)C1=C(C)NC(C)=C(C(=O)OC)C1c1cccc(N(C(=O)NCCCN2CCC(c3cccc(OC)c3)CC2)C(=O)OC(CO)CO)c1.Cl | % comp. 0′ | 0 |

* * *

Measured % Area of Pro-drug accompanies every entry in the list below.
Assay: pH 2.0 stability of prodrugs of the native compound (0.06M phosphate buffer, 37° C., 2 hours, RP-HPLC)
Conditions: pH 2.0, 37° C., 2 hours, RP-HPLC

| structure-string | % Area of Pro-drug (%) |
| --- | --- |
| COCCOC(=O)N(C(=O)NCCCN1CCC(c2cccc(OC)c2)CC1)c1cccc(C2C(C(=O)OC)=C(C)NC(C)=C2C(=O)OC)c1.Cl | 100 |
| COCCOCCOCCOCCOC(=O)N(C(=O)NCCCN1CCC(c2cccc(OC)c2)CC1)c1cccc(C2C(C(=O)OC)=C(C)NC(C)=C2C(=O)OC)c1.Cl | 100 |
| COCCOCCOC(=O)N(C(=O)NCCCN1CCC(c2cccc(OC)c2)CC1)c1cccc(C2C(C(=O)OC)=C(C)NC(C)=C2C(=O)OC)c1.Cl | 100 |
| COCCOCCOCCOC(=O)N(C(=O)NCCCN1CCC(c2cccc(OC)c2)CC1)c1cccc(C2C(C(=O)OC)=C(C)NC(C)=C2C(=O)OC)c1.Cl | 100 |

* * *

Measured % comp. 240′ accompanies every entry in the list below.
Test: Rat plasma stability of selected prodrugs (37° C., RP-HPLC)
Assay type: in vitro ADME
Settings: rat plasma, 37° C., 240 minutes, peak area

| structure-string | % comp. 240′, % |
| --- | --- |
| CCOC(=O)N(C(=O)NCCCN1CCC(c2cccc(OC)c2)CC1)c1cccc(C2C(C(=O)OC)=C(C)NC(C)=C2C(=O)OC)c1.Cl | 96.5 |
| COCCOCCOCCOCCOCCOCCOCCOCCOC(=O)N(C(=O)NCCCN1CCC(c2cccc(OC)c2)CC1)c1cccc(C2C(C(=O)OC)=C(C)NC(C)=C2C(=O)OC)c1.Cl | 96.0 |
| COC(=O)C1=C(C)NC(C)=C(C(=O)OC)C1c1cccc(N(C(=O)NCCCN2CCC(c3cccc(OC)c3)CC2)C(=O)OC(CO)CO)c1.Cl | 1 |
| COCCOCCOCCOCCOC(=O)N(C(=O)NCCCN1CCC(c2cccc(OC)c2)CC1)c1cccc(C2C(C(=O)OC)=C(C)NC(C)=C2C(=O)OC)c1.Cl | 98.0 |
| COCCOCCOCCOC(=O)N(C(=O)NCCCN1CCC(c2cccc(OC)c2)CC1)c1cccc(C2C(C(=O)OC)=C(C)NC(C)=C2C(=O)OC)c1.Cl | 97.0 |

* * *

Assay: Rat plasma stability of selected prodrugs (37° C., RP-HPLC)
Type: in vitro ADME
Details: rat plasma, 37° C., 360 minutes, peak area
Measured % comp. 360′ accompanies every entry in the list below.
measure: % comp. 360′ (%)

| molecule | readout-value |
| --- | --- |
| COC(=O)C1=C(C)NC(C)=C(C(=O)OC)C1c1cccc(N(C(=O)NCCCN2CCC(c3cccc(OC)c3)CC2)C(=O)OC(CO)CO)c1.Cl [Compound 16] | 1 |
| COCCOCCOCCOC(=O)N(C(=O)NCCCN1CCC(c2cccc(OC)c2)CC1)c1cccc(C2C(C(=O)OC)=C(C)NC(C)=C2C(=O)OC)c1.Cl [Compound 13] | 96.0 |
| CCOC(=O)N(C(=O)NCCCN1CCC(c2cccc(OC)c2)CC1)c1cccc(C2C(C(=O)OC)=C(C)NC(C)=C2C(=O)OC)c1.Cl [Compound 14] | 96.0 |
| COCCOCCOCCOCCOC(=O)N(C(=O)NCCCN1CCC(c2cccc(OC)c2)CC1)c1cccc(C2C(C(=O)OC)=C(C)NC(C)=C2C(=O)OC)c1.Cl [Compound 17] | 97.0 |
| COCCOCCOCCOCCOCCOCCOCCOCCOC(=O)N(C(=O)NCCCN1CCC(c2cccc(OC)c2)CC1)c1cccc(C2C(C(=O)OC)=C(C)NC(C)=C2C(=O)OC)c1.Cl [Compound 19] | 95.3 |

* * *

Assay: Rat plasma stability of selected prodrugs (37° C., RP-HPLC)
Assay type: in vitro ADME
Settings: rat plasma, 37° C., 60 minutes, peak area
measure: % comp. 60′ (%)

| compound | value-units | readout-value |
| --- | --- | --- |
| COCCOCCOCCOCCOC(=O)N(C(=O)NCCCN1CCC(c2cccc(OC)c2)CC1)c1cccc(C2C(C(=O)OC)=C(C)NC(C)=C2C(=O)OC)c1.Cl [Compound 17] | % | 99.0 |
| COC(=O)C1=C(C)NC(C)=C(C(=O)OC)C1c1cccc(N(C(=O)NCCCN2CCC(c3cccc(OC)c3)CC2)C(=O)OC(CO)CO)c1.Cl [Compound 16] | % | 0 |
| COCCOCCOCCOCCOCCOCCOCCOCCOC(=O)N(C(=O)NCCCN1CCC(c2cccc(OC)c2)CC1)c1cccc(C2C(C(=O)OC)=C(C)NC(C)=C2C(=O)OC)c1.Cl [Compound 19] | % | 97.0 |
| CCOC(=O)N(C(=O)NCCCN1CCC(c2cccc(OC)c2)CC1)c1cccc(C2C(C(=O)OC)=C(C)NC(C)=C2C(=O)OC)c1.Cl [Compound 14] | % | 98.0 |
| COCCOCCOCCOC(=O)N(C(=O)NCCCN1CCC(c2cccc(OC)c2)CC1)c1cccc(C2C(C(=O)OC)=C(C)NC(C)=C2C(=O)OC)c1.Cl [Compound 13] | % | 98.0 |
